Assay Method Text: Compound was tested to inhibit the production of C5a relative to C3a
Format: functional, Homo sapiens
Readout: IC50 (mM)
Give your result in mM as a bare value.

Ask: For the molecule COc1ccc(C(=O)O)c2c1CC(C)(C1CC=C(C)CC1)O2 (stereo unspecified) , give its reported IC50.
Result: 8

---

Assay Method Text: Compound was tested to inhibit the production of C5a relative to C3a
Type: functional, Homo sapiens
Readout: pIC50
The quantity pIC50 is defined as the negative base-10 logarithm of the molar concentration.

Ask: For the compound COc1ccc(C(=O)O)c2c1CC(C)(C1CC=C(C)CC1)O2 (stereo unspecified) , give its reported pIC50.
Result: 2.22
